tested on: K98450-129-R-PDC multicell spheroids, viability; experiment: Anticancer human tumor K98450-129-R-PDC patient-derived colon adenocarcinoma cell line growth inhibition [PI3K]; conditions: second compound 1 µM; first compound 0.00949 µM; hits give low values
result_type: viability, T/C (%)
Only the number, expressed in %, is required.

// worked examples, viability, T/C included
molecule="Cn1cnc2c(F)c(Nc3ccc(Br)cc3Cl)c(C(=O)NOCCO)cc21 + CC(Nc1ccc2c(c1)OCCn1cc(N3C(=O)OCC3C(F)F)nc1-2)C(N)=O" result_type="viability, T/C" measured_value=76.6
molecule="Cn1cnc2c(F)c(Nc3ccc(Br)cc3Cl)c(C(=O)NOCCO)cc21 + CC(Nc1ncnc2nc[nH]c12)c1cc2cccc(Cl)c2c(=O)n1-c1ccccc1" result_type="viability, T/C" measured_value=89.8
molecule="Cn1cnc2c(F)c(Nc3ccc(Br)cc3Cl)c(C(=O)NOCCO)cc21 + Cc1nc(NC(=O)N2CCCC2C(N)=O)sc1-c1ccnc(C(C)(C)C(F)(F)F)c1" result_type="viability, T/C" measured_value=85.3

Now for another entry.
## Task viability, T/C for Cn1cnc2c(F)c(Nc3ccc(Br)cc3Cl)c(C(=O)NOCCO)cc21 + COc1c(OCCCN2CCOCC2)ccc2c3n(c(=NC(=O)c4cnc(N)nc4)nc12)CCN3 ?
## Result 45.9

###

test system: K98450-129-R-PDC multicell spheroids, viability; assay: Anticancer human tumor K98450-129-R-PDC cell line growth inhibition [PI3K]; settings: second compound 0.1 µM; first compound 3.16 µM; hits give low values;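 also: spheroids exposed to agents for seven days before read-out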
result_type: viability, T/C (%)
The reply should be a number in %, with the unit left off.

## Task Item under review: C#Cc1c(F)ccc2cc(O)cc(-c3ncc4c(N5CC6CCC(C5)N6)nc(OCC56CCCN5CC(F)C6)nc4c3F)c12 (stereo not given) + Cc1nc(NC(=O)N2CCCC2C(N)=O)sc1-c1ccnc(C(C)(C)C(F)(F)F)c1 . Reported viability, T/C?
## Result 92.9

## Task Dear colleague, I am looking for the recorded viability, T/C of the following compound: C[C@@H](NC(=O)c1ncnc(N)c1Cl)c1ncc(C(=O)Nc2cc(C(F)(F)F)c(Cl)cn2)s1 + CC(Nc1ncnc2nc[nH]c12)c1cc2cccc(Cl)c2c(=O)n1-c1ccccc1
## Result 123

## Task Recorded viability, T/C for CC(Cn1ccc(-c2ccc(C#N)c(Cl)c2)n1)NC(=O)c1cc(C(C)O)[nH]n1 (stereo not given) + COc1c(OCCCN2CCOCC2)ccc2c3n(c(=NC(=O)c4cnc(N)nc4)nc12)CCN3 , please?
## Result 90

## Task Would you mind telling me what viability, T/C value was observed for C[C@@H](NC(=O)c1ncnc(N)c1Cl)c1ncc(C(=O)Nc2cc(C(F)(F)F)c(Cl)cn2)s1 + COc1c(OCCCN2CCOCC2)ccc2c3n(c(=NC(=O)c4cnc(N)nc4)nc12)CCN3 ?
## Result 101

## Task // query viability, T/C value for entry CC(Cn1ccc(-c2ccc(C#N)c(Cl)c2)n1)NC(=O)c1cc(C(C)O)[nH]n1 (stereo not given) + CC(Nc1ccc2c(c1)OCCn1cc(N3C(=O)OCC3C(F)F)nc1-2)C(N)=O
## Result 109

###

tested on: K98450-129-R-PDC multicell spheroids, viability; assay: Anticancer human tumor K98450-129-R-PDC cell line growth inhibition [PI3K]; settings: second compound 0.0316 µM; first compound 10 µM; hits give low values;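 also: spheroids exposed to agents for seven days before read-out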
result_type: viability, T/C (%)
Express your answer in %, writing the number without its unit.

## Task Fill in: viability, T/C of CC(Cn1ccc(-c2ccc(C#N)c(Cl)c2)n1)NC(=O)c1cc(C(C)O)[nH]n1 (stereo not given) + COc1c(OCCCN2CCOCC2)ccc2c3n(c(=NC(=O)c4cnc(N)nc4)nc12)CCN3 is ___
## Result 75.8

## Task Look at this molecule and give its reported viability, T/C. C=CC(=O)N1CCN(c2nc(=O)n(-c3c(C)ccnc3C(C)C)c3nc(-c4c(O)cccc4F)c(F)cc23)C(C)C1 (stereo not given) + COc1c(OCCCN2CCOCC2)ccc2c3n(c(=NC(=O)c4cnc(N)nc4)nc12)CCN3
## Result 29.4

## Task Given the entry CC1(C)CCC(Nc2ncc(C(F)(F)F)c(-c3c[nH]c4c(P(C)(C)=O)c(C#N)ccc34)n2)CN1 (stereo not given) + Cc1nc(NC(=O)N2CCCC2C(N)=O)sc1-c1ccnc(C(C)(C)C(F)(F)F)c1 , report its measured viability, T/C.
## Result 64.6

## Task Name the recorded viability, T/C for CNC(=O)c1ccc(N2C(=S)N(c3ccc(C#N)c(C(F)(F)F)c3)C(=O)C2(C)C)cc1F + CC(Nc1ncnc2nc[nH]c12)c1cc2cccc(Cl)c2c(=O)n1-c1ccccc1 .
## Result 88.9

## Task I'd like to know its viability, T/C. The molecule in question is CNC(=O)c1ccc(N2C(=S)N(c3ccc(C#N)c(C(F)(F)F)c3)C(=O)C2(C)C)cc1F + COc1c(OCCCN2CCOCC2)ccc2c3n(c(=NC(=O)c4cnc(N)nc4)nc12)CCN3
## Result 68.1

###

system: K98450-129-R-PDC multicell spheroids, viability; assay: Anticancer human tumor K98450-129-R-PDC cell line growth inhibition [PI3K]; details: second compound 0.1 µM; first compound 0.1 µM; hits give low values;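 also: spheroids exposed to agents for seven days before read-out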
result_type: viability, T/C (%)
Please reply with the bare figure in % and do not write the unit itself.

Previously resolved entries follow.
compound="CC(C)n1nc(-c2ccc3oc(N)nc3c2)c2c(N)ncnc21 + CC(Nc1ncnc2nc[nH]c12)c1cc2cccc(Cl)c2c(=O)n1-c1ccccc1" unit_abbreviation=% measured_value=72.8
compound="C#Cc1c(F)ccc2cc(O)cc(-c3ncc4c(N5CC6CCC(C5)N6)nc(OCC56CCCN5CC(F)C6)nc4c3F)c12 (stereo unspecified) + COc1c(OCCCN2CCOCC2)ccc2c3n(c(=NC(=O)c4cnc(N)nc4)nc12)CCN3" unit_abbreviation=% measured_value=65.7
compound="CC(C)NCC(C(=O)N1CCN(c2ncnc3c2C(C)CC3O)CC1)c1ccc(Cl)cc1 (stereo unspecified) + COc1c(OCCCN2CCOCC2)ccc2c3n(c(=NC(=O)c4cnc(N)nc4)nc12)CCN3" unit_abbreviation=% measured_value=66.4

## Task Under K98450-129-R-PDC multicell spheroids, viability: viability, T/C value of C=CC(=O)N1CCN(c2nc(=O)n(-c3c(C)ccnc3C(C)C)c3nc(-c4c(O)cccc4F)c(F)cc23)C(C)C1 (stereo unspecified) + CC(Nc1ncnc2nc[nH]c12)c1cc2cccc(Cl)c2c(=O)n1-c1ccccc1 ?
## Result 99.7

## Task Please tell me: viability, T/C of Cn1ncc(Cl)c1-c1cc(C(=O)NC(CN)Cc2cccc(F)c2)sc1Cl (stereo unspecified) + Cc1nc(NC(=O)N2CCCC2C(N)=O)sc1-c1ccnc(C(C)(C)C(F)(F)F)c1 , system K98450-129-R-PDC multicell spheroids, viability?
## Result 99.4

## Task Form entry - test system: K98450-129-R-PDC multicell spheroids, viability; read-out: viability, T/C; compound: CC1(C)CCC(Nc2ncc(C(F)(F)F)c(-c3c[nH]c4c(P(C)(C)=O)c(C#N)ccc34)n2)CN1 (stereo unspecified) + CC(Nc1ccc2c(c1)OCCn1cc(N3C(=O)OCC3C(F)F)nc1-2)C(N)=O
## Result 107

## Task Lab request: please report viability, T/C under test system K98450-129-R-PDC multicell spheroids, viability for CC(C)NCC(C(=O)N1CCN(c2ncnc3c2C(C)CC3O)CC1)c1ccc(Cl)cc1 (stereo unspecified) + CC(Nc1ncnc2nc[nH]c12)c1cc2cccc(Cl)c2c(=O)n1-c1ccccc1
## Result 115

## Task What viability, T/C appears in the records for this compound with K98450-129-R-PDC multicell spheroids, viability? CC(C)n1nc(-c2ccc3oc(N)nc3c2)c2c(N)ncnc21 + Cc1nc(NC(=O)N2CCCC2C(N)=O)sc1-c1ccnc(C(C)(C)C(F)(F)F)c1
## Result 79.9

## Task What is its viability, T/C for K98450-129-R-PDC multicell spheroids, viability? Entry: Cn1ncc(Cl)c1-c1cc(C(=O)NC(CN)Cc2cccc(F)c2)sc1Cl (stereo unspecified) + CC(Nc1ncnc2nc[nH]c12)c1cc2cccc(Cl)c2c(=O)n1-c1ccccc1
## Result 85

## Task What viability, T/C appears in the records for this compound with K98450-129-R-PDC multicell spheroids, viability? CC1(C)CCC(CN2CCN(c3ccc(C(=O)NS(=O)(=O)c4ccc(NCC5CCOCC5)c([N+](=O)[O-])c4)c(Oc4cnc5[nH]ccc5c4)c3)CC2)=C(c2ccc(Cl)cc2)C1 + CC(Nc1ncnc2nc[nH]c12)c1cc2cccc(Cl)c2c(=O)n1-c1ccccc1
## Result 104

## Task Form entry - test system: K98450-129-R-PDC multicell spheroids, viability; read-out: viability, T/C; compound: C=CC(=O)N1CCN(c2nc(=O)n(-c3c(C)ccnc3C(C)C)c3nc(-c4c(O)cccc4F)c(F)cc23)C(C)C1 (stereo unspecified) + COc1c(OCCCN2CCOCC2)ccc2c3n(c(=NC(=O)c4cnc(N)nc4)nc12)CCN3
## Result 91.2
